assay_system: T1, human DLL3 on cells (human, UniProt Q9NYJ7 27-618)
T1 construct: Endogenous on H1184 and SHP77; Cell line is named under assay; also called H1184; DLL3/H82
T1 sequence: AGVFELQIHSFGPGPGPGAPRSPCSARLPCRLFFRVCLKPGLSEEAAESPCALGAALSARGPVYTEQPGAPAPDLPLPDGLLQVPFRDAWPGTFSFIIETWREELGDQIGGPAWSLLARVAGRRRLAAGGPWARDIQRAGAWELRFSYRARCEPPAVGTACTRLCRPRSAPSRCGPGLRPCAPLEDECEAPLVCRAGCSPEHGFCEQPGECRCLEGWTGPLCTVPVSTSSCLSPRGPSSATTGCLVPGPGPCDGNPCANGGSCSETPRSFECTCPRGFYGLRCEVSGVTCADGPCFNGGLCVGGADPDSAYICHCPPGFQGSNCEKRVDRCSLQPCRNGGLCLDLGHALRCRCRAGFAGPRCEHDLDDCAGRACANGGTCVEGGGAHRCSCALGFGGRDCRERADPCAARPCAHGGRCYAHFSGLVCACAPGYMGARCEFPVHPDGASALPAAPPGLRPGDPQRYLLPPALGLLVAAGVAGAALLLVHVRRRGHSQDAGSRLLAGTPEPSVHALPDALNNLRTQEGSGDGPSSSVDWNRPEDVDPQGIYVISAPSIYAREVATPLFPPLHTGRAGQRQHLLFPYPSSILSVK
assay_details: flow cytometry, H1184 cells
I'd be grateful if you could share measured Emax for these entries.
Give bare numbers.

Some entries whose results are on file:
binder="hu6L4H11 (antibody, human IgG1, kappa, V domains shown) VH: EVQLVQSGSELKKPGASVKVSCKASGYTFTDYYMNWVKQAPGQGLEWMGIINPYSGVTIYNHKFKGRFVLSVDKSSNTAYLQISSLKAEDTAVYYCARQDSLLDYAMDYWGQGTTVTVSS VL: DIQMTQSPSSLSASVGDRVTITCHASQGISGNMGWLQQKPGKAPKGLIYHGANLEDGVPSRFSGSGSGADYTLTISSLQPEDFADYYCVQYAQFPYTFGGGTKVEIKR" observed_value=2190
binder="hu6L4H4 (antibody, human IgG1, kappa, V domains shown) VH: EVQLVQSGAEVKKPGASVKVSCKASGYTFTDYYMNWVRQAPGKRLEWMGIINPYSGVTIYNHKFKGRVTLTVDKSANTAYMELSSLRSEDTAVYYCARQDSLLDYAMDYWGQGTTVTVSS VL: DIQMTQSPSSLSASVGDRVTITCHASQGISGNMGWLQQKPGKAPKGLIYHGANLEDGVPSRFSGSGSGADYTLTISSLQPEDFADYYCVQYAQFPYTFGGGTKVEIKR" observed_value=2310

q: Any idea what its Emax is? The binder is hu98L3H1 (antibody, human IgG1, kappa, V domains shown) VH: EVQLVESGGGLVQPGGSLRLSCAASGFTFSDYGIHWVRQAPGKGLEWVAYISSGGYTIYYADTVKGRFTISRDNAKNSLYLQMNSLRAEDTAVYYCARGDYDDIFYTMDYWGQGTTVTVSS VL: DIQMTQSPSSLSASVGDRVTITCRASRDITKFLNWYQQKPGGAVKLLIYYTSRLHSGVPSRFSGSGSGTDYTLTISSLQPEDFATYYCQQGNTLPWTFGGGTKVEIKR
a: 2440
